target: cdk4/D (Homo sapiens, UniProt P11802); assay: Cyclin-Dependent Kinase 4 (cdk4) Assay; type: biochemical
Sequence (P11802 whole entry): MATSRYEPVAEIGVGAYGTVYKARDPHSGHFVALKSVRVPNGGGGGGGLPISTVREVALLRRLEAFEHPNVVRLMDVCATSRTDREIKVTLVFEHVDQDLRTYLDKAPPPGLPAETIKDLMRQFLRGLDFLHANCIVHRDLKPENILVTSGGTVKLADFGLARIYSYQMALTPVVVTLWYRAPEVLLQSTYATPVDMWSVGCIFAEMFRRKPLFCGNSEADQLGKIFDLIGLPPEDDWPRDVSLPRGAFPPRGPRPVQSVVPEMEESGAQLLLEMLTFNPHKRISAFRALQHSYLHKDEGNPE
Sequence (P24385 whole entry, further chain): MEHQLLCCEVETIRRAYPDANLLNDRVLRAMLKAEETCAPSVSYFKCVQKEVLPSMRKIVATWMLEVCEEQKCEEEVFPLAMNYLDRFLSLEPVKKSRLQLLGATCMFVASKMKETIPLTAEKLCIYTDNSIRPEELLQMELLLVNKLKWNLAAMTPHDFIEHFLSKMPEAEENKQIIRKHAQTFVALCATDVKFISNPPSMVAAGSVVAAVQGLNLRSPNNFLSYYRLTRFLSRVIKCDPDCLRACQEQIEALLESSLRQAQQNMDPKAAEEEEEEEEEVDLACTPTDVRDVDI
pIC50: −log10 of the molar value.
parameter: pIC50

INSERT INTO measurements (molecule, bound_type, readout_value) VALUES
  ('CC(C)N1C(=O)NCc2cnc(Nc3ccc(N4CCN(C)CC4)cc3)nc21 [Example 22]', '=', 6.47),
  ('CC(C)n1c(=O)ncc2cnc(Nc3ccc(-n4cccn4)cc3)nc21 [Example 42]', '=', 5.41),
  ('O=C1NCc2cnc(Nc3ccc(N4CCCCC4CO)cc3)nc2N1C1CCCC1 (centres unmarked) [Example 19]', '=', 6.30),
  ('O=C1NCc2cnc(Nc3ccc(N4CCC(CCCO)CC4)cc3)nc2N1C1CCCC1 [Example 20]', '=', 6.38),
  ('CN1CCN(c2ccc(Nc3ncc4cnc(=O)n(C)c4n3)cc2)CC1 [Example 45]', '=', 4.79),
  ('O=c1ncc2cnc(Nc3ccc(N4CCCC(O)C4)cc3)nc2n1C1CCCC1 (centres unmarked) [Example 35]', '=', 7.09),
  ('C=CCn1c(=O)c2cnc(Nc3ccc(N4CCN(C)CC4)cc3)nc2n(C(C)C)c1=O [Example 70]', '=', 5.46),
  ('O=c1ncc2cnc(Nc3ccc(N4CCC(CCN5CCOCC5)CC4)cc3)nc2n1C1CCCC1 [Example 39]', '=', 6.52),
  ('COc1ccc(Nc2ncc3c(n2)N(C2CCCC2)C(=O)NC3)cc1 [Example 9]', '=', 5.24),
  ('CN1C(=O)NCc2cnc(Nc3ccc(N4CCC(O)CC4)cc3)nc21 [Example 29, trifluoroacetic acid]', '<', 4.40),
  ('CN1C(=O)NCc2cnc(Nc3ccc(N4CCC(N(C)C)CC4)cc3)nc21 [Example 30, trifluoroacetic acid]', '=', 4.74),
  ('CCN(CC)CCOc1ccc(Nc2ncc3cnc(=O)n(C4CCCC4)c3n2)cc1C [Example 34]', '=', 7.10),
  ('CCN(CC)CCOc1ccc(Nc2ncc3c(n2)N(C2CCCC2)C(=O)NC3)cc1C [Example 13]', '=', 6.52),
  ('CN(C)C1CCN(c2ccc(Nc3ncc4cnc(=O)n(C)c4n3)cc2)CC1 [Example 46]', '<', 4.40),
  ('COc1ccc(Nc2ncc3cnc(=O)n(C4CCCC4)c3n2)cc1 [Example 37]', '=', 6.66),
  ('Cn1c(=O)ncc2cnc(Nc3ccc(-n4cccn4)cc3)nc21 [Example 47]', '<', 4.40),
  ('O=C1NCc2cnc(Nc3ccc(N4CCCC(O)C4)cc3)nc2N1C1CCCC1 (centres unmarked) [Example 16]', '=', 6.20),
  ('O=C1NCc2cnc(Nc3ccc(-n4cccc4)cc3)nc2N1C1CCCC1 [Example 14]', '=', 4.75),
  ('O=c1ncc2cnc(Nc3ccc(-n4cccn4)cc3)nc2n1C1CCCC1 [Example 36]', '=', 6.36),
  ('CC1CN(c2ccc(Nc3ncc4c(n3)N(C3CCCC3)C(=O)NC4)cc2)CC(C)N1 (centres unmarked) [Example 18]', '=', 6.46);
